Just for reference, ChEMBL document CHEMBL5506024 is where these values come from.

target: Neuropeptide FF receptor 1 (Homo sapiens, UniProt Q9GZQ6); experiment: Antagonist activity at human NPFFR1 expressed in CHO cell membrane assessed as inhibition of NPVF induced cAMP response at 5 uM incubated for 1 hr by Topcount counting method relative to control; type: functional, cell membranes; set-up: scale not given: the % may be the effect or the level left
Sequence (Q9GZQ6 whole entry): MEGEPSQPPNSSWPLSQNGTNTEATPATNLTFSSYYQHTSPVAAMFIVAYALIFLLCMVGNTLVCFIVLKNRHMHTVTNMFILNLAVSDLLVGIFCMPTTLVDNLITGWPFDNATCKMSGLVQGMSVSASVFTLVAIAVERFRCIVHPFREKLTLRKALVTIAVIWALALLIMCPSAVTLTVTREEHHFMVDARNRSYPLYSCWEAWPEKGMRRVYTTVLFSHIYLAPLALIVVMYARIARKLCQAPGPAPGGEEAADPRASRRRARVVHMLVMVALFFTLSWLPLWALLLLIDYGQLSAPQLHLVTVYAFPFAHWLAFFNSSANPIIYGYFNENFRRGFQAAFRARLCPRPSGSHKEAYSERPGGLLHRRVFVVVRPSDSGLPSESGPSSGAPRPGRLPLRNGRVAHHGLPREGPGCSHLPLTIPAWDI
Numbered stars: 1 amine (or outer) side, 2 acyl side, 3 side chain; on linkers, the order of the positions; unused ones are H or OH. Square brackets hold non-standard residues; d marks the D form. Peptide text beside a SMILES is read from it. * marks the point of attachment. Nva(5-(4-Bn-piperidin-1-yl)) = N[C@@H](CCCN1CCC(Cc2ccccc2)CC1)C(=O)O; X2 = O=C1[C@@H](N[*:1])Cc2ccccc2CN1CCCC(=O)[*:2]; X1 = O=C1[C@@H](N[*:1])Cc2ccccc2CN1CCC(=O)[*:2]; Dmt = Cc1cc(O)cc(C)c1C[C@H](N)C(=O)O; Nicotinoyl = O=C(c1cccnc1)*; dOrn = NCCC[C@@H](N)C(=O)O; dNMeA = CN[C@H](C)C(=O)O
We use 20% as the dividing line for Activity: on or above the line is Fulfilled, below is Not fulfilled.

1. Cc1cc(O)cc(C)c1C[C@H](N)C(=O)N[C@H](CCCN)C(=O)N[C@H]1Cc2ccccc2CN(CCC(=O)N[C@@H](CCCN2CCC(Cc3ccccc3)CC2)C(=O)N[C@@H](Cc2ccccc2)C(N)=O)C1=O (H-[Dmt][dOrn][X1][Nva(5-(4-Bn-piperidin-1-yl))]F-NH2) ... Fulfilled
2. Cc1cc(O)cc(C)c1C[C@H](N)C(=O)N(C)[C@H](C)C(=O)N[C@H]1Cc2c(ccc3ccccc23)CN(CCC(=O)N[C@@H](CCCN2CCC(Cc3ccccc3)CC2)C(=O)N[C@@H](Cc2ccccc2)C(N)=O)C1=O ... Fulfilled
3. Cc1cc(O)cc(C)c1C[C@H](N)C(=O)N(C)[C@H](C)C(=O)N[C@H]1Cc2c(ccc3ccccc23)CN(CC(=O)N[C@@H](CCCN2CCC(Cc3ccccc3)CC2)C(=O)N[C@@H](Cc2ccccc2)C(N)=O)C1=O ... Not fulfilled
4. Cc1cc(O)cc(C)c1C[C@H](N)C(=O)N(C)[C@H](C)C(=O)N[C@H]1Cc2ccccc2CN(CCCC(=O)N[C@@H](CCCN2CCC(Cc3ccccc3)CC2)C(=O)N[C@@H](Cc2ccccc2)C(N)=O)C1=O (H-[Dmt][dNMeA][X2][Nva(5-(4-Bn-piperidin-1-yl))]F-NH2) ... Not fulfilled
5. Cc1cc(O)cc(C)c1C[C@H](N)C(=O)N[C@H](CCCCNC(=O)c1cccnc1)C(=O)N[C@H]1Cc2ccccc2CN(CCC(=O)N[C@@H](CCCN2CCC(Cc3ccccc3)CC2)C(=O)N[C@@H](Cc2ccccc2)C(N)=O)C1=O (H-[Dmt][dK](Nicotinoyl)[X1][Nva(5-(4-Bn-piperidin-1-yl))]F-NH2) ... Fulfilled

Next, consider the following compound.
Evaluate Cc1cc(O)cc(C)c1C[C@H](N)C(=O)N[C@H](CCCNC(=N)N)C(=O)N[C@H]1Cc2c(ccc3ccccc23)CN(CC(=O)N[C@@H](CCCN2CCC(Cc3ccccc3)CC2)C(=O)N[C@@H](Cc2ccccc2)C(N)=O)C1=O : Activity at minimum 20%?
Fulfilled
